# assayTarget: HGFR (Homo sapiens, UniProt P08581)
# Construct: purchased Upstate 14-526
# Sequence (P08581 974-1390 limits assumed): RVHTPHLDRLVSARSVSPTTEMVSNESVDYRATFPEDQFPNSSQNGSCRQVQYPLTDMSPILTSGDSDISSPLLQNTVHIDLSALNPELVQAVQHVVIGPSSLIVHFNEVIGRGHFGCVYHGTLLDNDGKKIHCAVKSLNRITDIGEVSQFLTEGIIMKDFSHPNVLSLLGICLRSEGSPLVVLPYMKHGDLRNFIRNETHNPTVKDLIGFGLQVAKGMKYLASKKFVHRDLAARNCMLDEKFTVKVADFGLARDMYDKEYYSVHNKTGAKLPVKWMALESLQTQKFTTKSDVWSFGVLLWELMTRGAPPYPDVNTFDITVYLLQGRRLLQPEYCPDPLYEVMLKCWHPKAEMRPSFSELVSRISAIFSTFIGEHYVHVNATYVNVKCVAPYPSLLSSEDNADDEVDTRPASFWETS
# procedureText: HGFR continuous-coupled spectrophotometric assay
# Type: biochemical
# protocolConditions: Table 3; Ki(μM) or I(%)
reportedMetric: Ki (µM)
Use µM as the unit, but write only the number.

GET /values?readout=Ki&item= CC(Oc1cc(-c2ccccc2F)cnc1N)c1c(Cl)ccc(F)c1Cl (stereo not shown) [Example I-563]
0.433

###

# assayTarget: HGFR (Homo sapiens, UniProt P08581)
# Construct: purchased Upstate 14-526
# procedureText: HGFR continuous-coupled spectrophotometric assay
# Format: biochemical
# protocolConditions: Table 3; Ki(μM) or I(%); test concentration not given
Give true when the value for I(%) is at least 6%. Give false when it is less.

molecule	labelClass
CC(=O)c1ccccc1-c1cnc(N)c(OC(C)c2c(Cl)ccc(F)c2Cl)c1 (stereo not drawn)	true

Could you please find out whether CC(Oc1cc(-c2ccccc2Cl)cnc1N)c1c(Cl)ccc(F)c1Cl (stereo not drawn) has I(%) that meets 6% or exceeds it?
true

Check the entry CC(Oc1cc(-c2nccn2C)cnc1N)c1c(Cl)ccc(F)c1Cl (stereo not drawn) : does I(%) equal or exceed 6%?
true

Entry CC(Oc1cc(-c2ccc(C(=O)N3CCC(N4CCCC4)CC3)cc2)cnc1N)c1ccc(C(=O)NCCCN2CCCC2=O)cc1 (stereo not drawn) : is its I(%) no less than 6%?
false

Answer whether I(%) of CC(Oc1cc(-c2ccc(C(=O)N3C[C@@H](C)N[C@@H](C)C3)cc2)cnc1N)c1cccc(C(F)(F)F)c1 (stereo partly drawn) is greater than or equal to 6%.
false

Kindly determine if I(%) recorded for Nc1ncc(-c2ccc(C(=O)N3CCC(N4CCCC4)CC3)cc2)cc1OCC1CCCCC1 is above or exactly 6%.
true

###

# assayTarget: HGFR (Homo sapiens, UniProt P08581)
# Construct: purchased Upstate 14-526
# procedureText: HGFR continuous-coupled spectrophotometric assay
# Type: biochemical
# protocolConditions: Table 6; percent c-MET inhibition at 1 μM; read-out: % inhibition
reportedMetric: inhibition at 1 µM
Number first, unit second.

Worked examples follow.
compound	reportedMetric	value
Nc1ncc(C(=O)N2CCN(Cc3cccc4ccccc34)CC2)cc1OCc1c(Cl)cccc1Cl	inhibition at 1 µM	26%
Nc1ncc(C(=O)NCCCO)cc1OCc1c(Cl)cccc1Cl	inhibition at 1 µM	26%
Cc1noc([C@H]2CC[C@H](CNC(=O)c3cnc(N)c(OCc4c(Cl)cccc4Cl)c3)CC2)n1	inhibition at 1 µM	3%

Please report the recorded inhibition at 1 µM for CC(C)(CO)CNC(=O)c1cnc(N)c(OCc2c(Cl)cccc2Cl)c1 .
39%

Which measured inhibition at 1 µM value corresponds to Nc1ncc(C(=O)NCc2ccc(C(F)(F)F)nc2)cc1OCc1c(Cl)cccc1Cl ?
17%

What value of inhibition at 1 µM has been recorded for this entry: CCS(=O)(=O)N1CCN(C(=O)c2cnc(N)c(OCc3c(Cl)cccc3Cl)c2)CC1
22%

Sample CC(C)CCNC(=O)c1cnc(N)c(OCc2c(Cl)cccc2Cl)c1 — what was its inhibition at 1 µM?
26%

Record request: inhibition at 1 µM value, item Nc1ncc(C(=O)NC2CCN(Cc3ccccc3)C2)cc1OCc1c(Cl)cccc1Cl (stereo not shown)
27%

Endpoint output: inhibition at 1 µM of N#CC1(c2ccccc2)CCN(C(=O)c2cnc(N)c(OCc3c(Cl)cccc3Cl)c2)CC1 . Value?
37%

Report inhibition at 1 µM for Nc1ncc(C(=O)NCCC2CCC(=O)N2CCc2ccc(O)cc2)cc1OCc1c(Cl)cccc1Cl (stereo not shown) please.
16%

###

Listed here: items and their measured inhibition at 0.05 µM.
# assayTarget: HGFR (Homo sapiens, UniProt P08581)
# Construct: purchased Upstate 14-526
# procedureText: HGFR continuous-coupled spectrophotometric assay
# Format: biochemical
# protocolConditions: Table 5; percent c-MET inhibition at 50 nM
Your answer should be a plain number; it is taken to be in %.

See these solved cases before continuing.
molecule	valueUnit	inhibition at 0.05 µM
CC(Oc1cc(-c2ccc(C(=O)NC[C@@H](C)O)cc2)cnc1N)c1c(Cl)ccc(F)c1Cl (some centres unmarked)	%	79
CC(Oc1cc(-c2ccc(C(=O)N[C@H]3CC[C@H](CO)CC3)cc2)cnc1N)c1c(Cl)ccc(F)c1Cl (some centres unmarked)	%	68
COC(=O)C(CO)NC(=O)c1ccc(-c2cnc(N)c(OC(C)c3c(Cl)ccc(F)c3Cl)c2)cc1 (centres unmarked)	%	81
CC(=O)N(C)C1CCN(C(=O)c2ccc(-c3cnc(N)c(OC(C)c4c(Cl)ccc(F)c4Cl)c3)cc2)C1 (centres unmarked)	%	70
CC(Oc1cc(-c2ccc(C(=O)N[C@H](C)C3CCCCC3)cc2)cnc1N)c1c(Cl)ccc(F)c1Cl (some centres unmarked) [drawing 1068]	%	60
CC(Oc1cc(-c2ccc(C(=O)NC[C@H](O)c3ccccc3)cc2)cnc1N)c1c(Cl)ccc(F)c1Cl (some centres unmarked)	%	69
CC(Oc1cc(-c2ccc(C(=O)NC(C)C(O)c3ccccc3)cc2)cnc1N)c1c(Cl)ccc(F)c1Cl (centres unmarked)	%	69

Moving on to another molecule below.
Look at this molecule and give its reported inhibition at 0.05 µM. CC1CCCN(C(=O)c2ccc(-c3cnc(N)c(OC(C)c4c(Cl)ccc(F)c4Cl)c3)cc2)C1 (centres unmarked)
65

###

Here the recorded I(%) is given for each entry.
# assayTarget: HGFR (Homo sapiens, UniProt P08581)
# Construct: purchased Upstate 14-526
# procedureText: HGFR continuous-coupled spectrophotometric assay
# Format: biochemical
# protocolConditions: Table 3; Ki(μM) or I(%); test concentration not given
Numbers only; they are read as %.

Previously resolved entries follow.
compound	valueUnit	I(%)
CCN1CCN(C(=O)c2ccc(-c3cnc(N)c(OCc4ccccc4)c3)cc2)CC1	%	7
C[C@@H]1CN(C(=O)c2ccc(-c3cnc4c(c3)OC(c3ccccc3)C(=O)N4)cc2)C[C@H](C)N1 (stereo partly shown)	%	0
CC1CN(C(=O)c2ccc(-c3cnc(N)c(OCc4c(Cl)cccc4Cl)c3)cc2)CC(C)N1 (stereo not shown)	%	10

Tell me the measured I(%) of Cc1cc(C)c(COc2cc(-c3ccc(C(=O)N4CCC(N5CCCC5)CC4)cc3)cnc2N)c(C)c1 , please.
2

###

# assayTarget: HGFR (Homo sapiens, UniProt P08581)
# Construct: purchased Upstate 14-526
# procedureText: HGFR continuous-coupled spectrophotometric assay
# Type: biochemical
# protocolConditions: Table 3; Ki(μM) or I(%); test concentration not given
reportedMetric: I(%)
Reply with just the number (in %).

compound	valueUnit	I(%)
COc1cccc(OC)c1-c1cnc(N)c(OC(C)c2c(Cl)ccc(F)c2Cl)c1 (centres unmarked)	%	2
COC(=O)c1cccc(COc2cc(-c3ccc(C(=O)N4CC(C)NC(C)C4)cc3)cnc2N)c1 (centres unmarked)	%	0
CC(Oc1cc(-c2ccc(C(=O)N3CCC(N4CCCC4)CC3)cc2)cnc1N)c1ccc(C(=O)NCCc2cccc(O)c2)cc1 (centres unmarked)	%	7
Cc1cccc(C)c1-c1cnc(N)c(OC(C)c2c(Cl)ccc(F)c2Cl)c1 (centres unmarked)	%	0

Value lookup for I(%); key = CCOc1ccccc1-c1cnc(N)c(OC(C)c2c(Cl)ccc(F)c2Cl)c1 (centres unmarked)
22

###

# assayTarget: HGFR (Homo sapiens)
# Construct: purchased Upstate 14-526
# procedureText: HGFR continuous-coupled spectrophotometric assay
# Type: biochemical

compoundString	% inhibition
COCOc1ccc(S(=O)(=O)c2ccc(COc3cc(-c4ccc(C(=O)N5CCC(N6CCCC6)CC5)cc4)cnc3N)cc2)cc1	% inhibition = 18
Nc1ncc(-c2ccc(C(=O)N3CCC(N4CCCC4)CC3)cc2)cc1OCc1ncc(C(F)(F)F)cc1Cl	% inhibition = 8
COC(=O)Nc1cc(COc2cc(-c3ccc(C(=O)N4CCC(N5CCCC5)CC4)cc3)cnc2N)on1	% inhibition = 18
CCOC(=O)c1nc(COc2cc(-c3ccc(C(=O)N4CCC(N5CCCC5)CC4)cc3)cnc2N)no1	% inhibition = 8

###

# assayTarget: HGFR (Homo sapiens, UniProt P08581)
# Construct: purchased Upstate 14-526
# procedureText: HGFR continuous-coupled spectrophotometric assay
# Format: biochemical
# protocolConditions: Table 6; percent c-MET inhibition at 1 μM; read-out: % inhibition
Let's look at some compounds and their measured inhibition at 1 µM.
Answer with a number only, understood to be in %.

compound	reportedMetric	valueUnit	value
Nc1ncc(C(=O)NCc2ccc(F)cc2Cl)cc1OCc1c(Cl)cccc1Cl	inhibition at 1 µM	%	37
Cc1cnc(CNC(=O)c2cnc(N)c(OCc3c(Cl)cccc3Cl)c2)cn1	inhibition at 1 µM	%	33
Nc1ncc(C(=O)NCc2ccccc2Br)cc1OCc1c(Cl)cccc1Cl	inhibition at 1 µM	%	36
Nc1ncc(C(=O)NCCc2c[nH]cn2)cc1OCc1c(Cl)cccc1Cl	inhibition at 1 µM	%	29
Nc1ncc(C(=O)NCCC2CCOCC2)cc1OCc1c(Cl)cccc1Cl	inhibition at 1 µM	%	31

Please tell me: inhibition at 1 µM of Nc1ncc(C(=O)N2CCC3(CC2)CC(N2CCC(O)CC2)CO3)cc1OCc1c(Cl)cccc1Cl (centres unmarked) , system HGFR (Homo sapiens, UniProt P08581)?
28

Tell me reported inhibition at 1 µM for Nc1ncc(C(=O)N2CCCC(Cc3ncccn3)C2)cc1OCc1c(Cl)cccc1Cl (centres unmarked) , tested with HGFR (Homo sapiens, UniProt P08581).
25

Notebook: pull reported inhibition at 1 µM for HGFR (Homo sapiens, UniProt P08581), entry CC(C)NC(=O)CN1CCN(C(=O)c2cnc(N)c(OCc3c(Cl)cccc3Cl)c2)CC1
30

Lab note: need inhibition at 1 µM with HGFR (Homo sapiens, UniProt P08581) for entry Nc1ncc(C(=O)NCCN2CCOCC2)cc1OCc1c(Cl)cccc1Cl , please look it up.
31
